system_name: T1, Peptide 4: Biotin-AGGGGSGGGGSGGGGSAAA-Tyr-acid (N-terminal biotin; C-terminal acid)
T1 construct: control peptide without PC
T1 peptide: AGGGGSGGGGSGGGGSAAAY
assay_name: scFv ELISA
This section presents binders with their documented OD450 values.
Your answer should be a plain number; it is taken to be in OD450.

Example entries and their recorded answers appear below.
>>> assay_value("PcOxP_DB02_E01 (scFv, V domains shown, scFv in periplasmic extract) VH: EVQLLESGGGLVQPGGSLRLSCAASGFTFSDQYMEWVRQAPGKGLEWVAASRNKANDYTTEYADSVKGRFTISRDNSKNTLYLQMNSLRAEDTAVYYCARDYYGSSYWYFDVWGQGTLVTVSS VL: DIQMTQSPSSLSASVGDRVTITCTASESLYSSKHKVHYLAWYQQKPGKAPKLLIYGASGRYIGVPSRFSGSGSGTDFTLTISSLQPEDFATYYCAQFYSYPLTFGGGTKVEIK")
0.05
>>> assay_value("PcOxP_DB03_A03 (scFv, V domains shown, scFv in periplasmic extract) VH: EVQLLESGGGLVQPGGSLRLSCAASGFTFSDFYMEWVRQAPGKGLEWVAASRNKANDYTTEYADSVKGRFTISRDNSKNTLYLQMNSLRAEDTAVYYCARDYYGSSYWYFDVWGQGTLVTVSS VL: DIQMTQSPSSLSASVGDRVTITCTASESLYSSKHKVHYLAWYQQKPGKAPKLLIYGASFRYIGVPSRFSGSGSGTDFTLTISSLQPEDFATYYCAQFYSYPLTFGGGTKVEIK")
0.06

Could you now look at the following binder, please?
Consider the binder PcOxP_DB03_E02 (scFv, V domains shown, scFv in periplasmic extract) VH: EVQLLESGGGLVQPGGSLRLSCAASGWTFSDFYMEWVRQAPGKGLEWVAASRNKANDYTTEYADSVKGRFTISRDNSKNTLYLQMNSLRAEDTAVYYCARDYYGSSYWYFDVWGQGTLVTVSS VL: DIQMTQSPSSLSASVGDRVTITCTASESLYSQKHKVHYLAWYQQKPGKAPKLLIYGASNRYIGVPSRFSGSGSGTDFTLTISSLQPEDFATYYCAQFYYYPLTFGGGTKVEIK and give its measured OD450.
0.06
